- study_system: 5-hydroxytryptamine receptor 5A (Homo sapiens, UniProt P47898)
- Sequence (P47898 whole entry): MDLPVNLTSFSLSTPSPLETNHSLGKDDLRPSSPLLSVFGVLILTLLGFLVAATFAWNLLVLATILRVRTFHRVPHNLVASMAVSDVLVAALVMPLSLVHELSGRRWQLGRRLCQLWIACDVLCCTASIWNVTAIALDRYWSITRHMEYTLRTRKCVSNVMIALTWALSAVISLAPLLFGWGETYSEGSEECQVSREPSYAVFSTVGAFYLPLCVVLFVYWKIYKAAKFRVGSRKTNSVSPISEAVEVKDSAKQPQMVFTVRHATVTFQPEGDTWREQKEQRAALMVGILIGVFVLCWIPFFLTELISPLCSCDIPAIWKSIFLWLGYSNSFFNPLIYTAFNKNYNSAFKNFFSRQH
measurement_type: Ki (µM)
Give the value in µM but do not write µM after it.

Prompt: // fetch Ki given entry CC(=O)N1C2C=C(CN3C4CCC3CC(NC(=O)Nc3cc(F)cc(C(F)(F)F)c3)C4)CC1CCC2 (stereo unspecified)
Response: 3

###

- procedure_summary: Intrinsic clearance in human liver microsomes at 0.5 uM
- Format: ADME, Microsome
measurement_type: log10(microsomal CLint at 0.5 µM) (log10 of the value in µL/min/mg)
A difference of one corresponds to tenfold microsomal CLint at 0.5 µM; all values are log10 with microsomal CLint at 0.5 µM in µL/min/mg.

Known log10(microsomal CLint at 0.5 µM) results, listed for orientation:
{"columns": ["compound", "measurement_type", "val"],
 "data": [
  ["CC(=O)c1cccc(NC(=O)NC2CCN(CC3=CC4CCCC(C3)N4C(C)=O)CC2)c1 (stereo not drawn)", "log10(microsomal CLint at 0.5 µM)", 1.00],
  ["CC(=O)N1C2C=C(CN3CCC(NC(=O)Nc4cc(F)cc(C(F)(F)F)c4)CC3)CC1CCC2 (stereo not drawn)", "log10(microsomal CLint at 0.5 µM)", 0.95],
  ["CC(C)(C)C(=O)N1C2C=C(CN3CCC(NC(=O)Nc4cc(F)cc(C(F)(F)F)c4)CC3)CC1CCC2 (stereo not drawn)", "log10(microsomal CLint at 0.5 µM)", 1.87],
  ["CC(=O)N1C2C=C(CN3CCC(NC(=O)Nc4cc(F)cc(OC(C)C)c4)CC3)CC1CCC2 (stereo not drawn)", "log10(microsomal CLint at 0.5 µM)", 1.70]
]}

Prompt: Provide log10(microsomal CLint at 0.5 µM) value for the following compound: CC(=O)N1C2C=C(CN3C4CCC3CC(NC(=O)Nc3cc(F)cc(C(F)(F)F)c3)C4)CC1CCC2 (stereo not drawn)
Response: 0.85

Prompt: Supply recorded log10(microsomal CLint at 0.5 µM) for CC(=O)N1CCC(CN2CCC(NC(=O)Nc3cc(C(F)(F)F)cc(C(F)(F)F)c3)CC2)CC1 here.
Response: 0.65

Prompt: Provide only the value of recorded log10(microsomal CLint at 0.5 µM) for CC(C)C(=O)N1C2C=C(CN3CCC(NC(=O)Nc4cc(F)cc(C(F)(F)F)c4)CC3)CC1CC2 (stereo not drawn)
Response: 1.76

Prompt: Give a short answer stating reported log10(microsomal CLint at 0.5 µM) for CC(C)(C)C(=O)N1CCC(CN2CCC(NC(=O)Nc3cc(C(F)(F)F)cc(C(F)(F)F)c3)CC2)CC1 .
Response: 1.90

###

Listing of entries alongside the reported Ki.
- study_system: Cytochrome P450 2D6 (Homo sapiens, UniProt P10635)
- Sequence (P10635 whole entry): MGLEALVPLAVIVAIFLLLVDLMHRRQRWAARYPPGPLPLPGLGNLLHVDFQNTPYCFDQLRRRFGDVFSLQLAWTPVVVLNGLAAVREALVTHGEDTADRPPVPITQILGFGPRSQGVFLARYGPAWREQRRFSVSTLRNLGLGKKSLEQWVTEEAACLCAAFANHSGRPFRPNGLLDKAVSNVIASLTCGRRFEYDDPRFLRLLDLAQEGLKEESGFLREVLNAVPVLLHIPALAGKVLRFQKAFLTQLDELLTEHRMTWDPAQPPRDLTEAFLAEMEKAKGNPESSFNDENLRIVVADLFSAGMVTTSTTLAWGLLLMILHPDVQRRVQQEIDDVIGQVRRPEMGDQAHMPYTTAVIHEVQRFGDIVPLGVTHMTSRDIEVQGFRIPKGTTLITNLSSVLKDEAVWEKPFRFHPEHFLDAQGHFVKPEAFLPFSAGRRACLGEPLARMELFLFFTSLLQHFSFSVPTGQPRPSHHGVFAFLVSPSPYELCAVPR
Form entry: value (µM) — number only.

{"columns": ["molecule", "Ki / µM"],
 "data": [
  ["CC(=O)N1C2C=C(CN3C4CCC3CC(NC(=O)Nc3cc(F)cc(C(F)(F)F)c3)C4)CC1CCC2 (configuration not stated)", 15]
]}

Now consider the entry below.
Prompt: Tell me Ki of CC1(C)[C@H]2CC=C(CN3CCC(NC(=O)Nc4cc(C(F)(F)F)cc(C(F)(F)F)c4)CC3)[C@@H]1C2 when tested on Cytochrome P450 2D6 (Homo sapiens, UniProt P10635).
Response: 5

###

- procedure_summary: Intrinsic clearance in human liver microsomes at 0.5 uM
- Assay type: ADME, Microsome
measurement_type: microsomal CLint at 0.5 µM (µL/min/mg)
Please give a number only; it is taken to be in µL/min/mg.

Known microsomal CLint at 0.5 µM results, listed for orientation:
{"columns": ["compound", "microsomal CLint at 0.5 µM (µL/min/mg)"],
 "data": [
  ["O=C(Nc1cc(F)cc(C(F)(F)F)c1)NC1CCN(CC2=CC3CCC(C2)N3C(=O)C2CC2)CC1 (stereo not drawn)", 9],
  ["CC(C)(C)C(=O)N1C2C=C(CN3CCC(NC(=O)Nc4cc(F)cc(C(F)(F)F)c4)CC3)CC1CC2 (stereo not drawn)", 60],
  ["CC(=O)N1C2C=C(CN3CCC(NC(=O)Nc4cc(F)cc(C(F)(F)F)c4)CC3)CC1CC2 (stereo not drawn)", 11],
  ["CC1(C)[C@H]2CC=C(CN3CCC(NC(=O)Nc4cc(C(F)(F)F)cc(C(F)(F)F)c4)CC3)[C@@H]1C2", 82],
  ["CCOC(=O)N1C2C=C(CN3CCC(NC(=O)Nc4cc(F)cc(C(F)(F)F)c4)CC3)CC1CC2 (stereo not drawn)", 48]
]}

Prompt: Indicate the recorded microsomal CLint at 0.5 µM value for this compound: O=C(Nc1cc(C(F)(F)F)cc(C(F)(F)F)c1)NC1CCN(CCC2CCS(=O)(=O)C2)CC1 (stereo not drawn)
Response: 3.5

Prompt: Using the record for CC(=O)N1C2C=C(CN3CCC(NC(=O)Nc4cccc(OC(C)C)c4)CC3)CC1CCC2 (stereo not drawn) , state its measured microsomal CLint at 0.5 µM.
Response: 22

Prompt: Please look at this compound and report its microsomal CLint at 0.5 µM: O=C(Nc1ccc2ccccc2c1)NC1CCN(C/C2=C/CCCCCC2)CC1
Response: 72

###

- study_system: Muscarinic acetylcholine receptor M2 (Homo sapiens)
- Sequence (P08172 whole entry): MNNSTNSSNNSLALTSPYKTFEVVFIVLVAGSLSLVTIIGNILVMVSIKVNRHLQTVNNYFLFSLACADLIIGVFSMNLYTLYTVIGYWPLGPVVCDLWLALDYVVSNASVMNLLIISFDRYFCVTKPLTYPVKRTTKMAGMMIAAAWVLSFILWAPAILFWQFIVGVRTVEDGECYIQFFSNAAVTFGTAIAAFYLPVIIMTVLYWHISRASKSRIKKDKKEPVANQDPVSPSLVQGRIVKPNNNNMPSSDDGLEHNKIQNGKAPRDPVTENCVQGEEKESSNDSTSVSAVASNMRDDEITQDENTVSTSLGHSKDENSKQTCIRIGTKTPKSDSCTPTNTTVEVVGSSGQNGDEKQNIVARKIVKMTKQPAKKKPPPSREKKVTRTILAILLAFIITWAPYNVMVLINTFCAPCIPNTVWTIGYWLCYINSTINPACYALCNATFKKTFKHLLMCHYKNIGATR
measurement_type: Ki
Write your answer as a measured quantity: the number, then the unit.

Prompt: Report measured Ki; entry is CC(=O)N1C2C=C(CN3C4CCC3CC(NC(=O)Nc3cc(F)cc(C(F)(F)F)c3)C4)CC1CCC2 (stereo unspecified)
Response: 280 nM

###

- procedure_summary: Distribution coefficient, log D at pH 7.4
- Format: physicochemical
- condition_parameters: octanol/water
Reported logD is given for each of the following compounds.
Give the figure by itself; no unit, no explanation.

Prompt: Give a short answer stating reported logD for CC(C)C(=O)N1C2C=C(CN3CCC(NC(=O)Nc4cc(F)cc(C(F)(F)F)c4)CC3)CC1CC2 (stereo unspecified) .
Response: 3.9

Prompt: Give logD for the following compound: CC(C)(C)C(=O)N1C2C=C(CN3CCC(NC(=O)Nc4cc(F)cc(C(F)(F)F)c4)CC3)CC1CCC2 (stereo unspecified)
Response: 4.5

Prompt: Specify logD for CC(=O)c1cccc(NC(=O)NC2CCN(CC3=CC4CCCC(C3)N4C(C)=O)CC2)c1 (stereo unspecified) and stop.
Response: 2.8

Prompt: Give a short answer stating reported logD for CC(C)(C)C(=O)N1CCC(CN2CCC(NC(=O)Nc3cc(C(F)(F)F)cc(C(F)(F)F)c3)CC2)CC1 .
Response: 4.2

Prompt: Answer with the recorded logD of O=C(Nc1cc(C(F)(F)F)cc(C(F)(F)F)c1)NC1CCN(CCC2CCS(=O)(=O)C2)CC1 (stereo unspecified) only.
Response: 2.8

Prompt: Answer with reported logD of CC(=O)N1C2C=C(CN3CCC(NC(=O)Nc4cccc(OC(C)C)c4)CC3)CC1CCC2 (stereo unspecified)
Response: 2.5

Prompt: Give the measured logD for CC(C)(C)C(=O)N1C2C=C(CN3CCC(NC(=O)Nc4cc(F)cc(C(F)(F)F)c4)CC3)CC1CC2 (stereo unspecified)
Response: 4.2

Prompt: Give me measured logD, please, for this compound: CC1(C)[C@H]2CC=C(CN3CCC(NC(=O)Nc4cc(C(F)(F)F)cc(C(F)(F)F)c4)CC3)[C@@H]1C2
Response: 5.1

Prompt: Given the compound CC(=O)N1C2C=C(CN3CCC(NC(=O)Nc4cc(F)cc(OC(C)C)c4)CC3)CC1CCC2 (stereo unspecified) , write its reported logD.
Response: 2.7

Prompt: Please list logD recorded for the compound CC(=O)N1C2C=C(CN3C4CCC3CC(NC(=O)Nc3cc(F)cc(C(F)(F)F)c3)C4)CC1CCC2 (stereo unspecified)
Response: 3.1

Prompt: Using the record for CCOC(=O)N1C2C=C(CN3CCC(NC(=O)Nc4cc(F)cc(C(F)(F)F)c4)CC3)CC1CC2 (stereo unspecified) , state its measured logD.
Response: 4.6

Prompt: Answer with reported logD of CC(=O)N1C2CCC1CC(CN1CCC(NC(=O)Nc3cc(F)cc(C(F)(F)F)c3)CC1)C2 (mixture of isomers)
Response: 2.8

Prompt: Supply measured logD of CC(=O)N1C2C=C(CN3CCC(NC(=O)Nc4cc(F)cc(C(F)(F)F)c4)CC3)CC1CCC2 (stereo unspecified) in your reply.
Response: 3.4

Prompt: Please report the measured logD for CC(=O)N1CCC(CN2CCC(NC(=O)Nc3cc(C(F)(F)F)cc(C(F)(F)F)c3)CC2)CC1
Response: 3.1

Prompt: Please give the documented logD of CC(=O)N1C2C=C(CN3CCC(NC(=O)Nc4cc(F)cc(C(F)(F)F)c4)CC3)CC1CC2 (stereo unspecified)
Response: 3

Prompt: For the compound O=C(Nc1cc(F)cc(C(F)(F)F)c1)NC1CCN(CC2=CC3CCC(C2)N3C(=O)C2CC2)CC1 (stereo unspecified) , give its reported logD.
Response: 3.4
